The origin of these recorded values is ChEMBL document CHEMBL1287653.

As shown below, each of these compounds has a reported viability at 168 h, 20 µM value.
procedureSummary: Cytotoxicity against chinese hamster V79 cells assessed as survival fraction under normoxic condition at 20 uM after 7 days by crystal violet staining relative to control
Type: cell-based, Cricetulus griseus
conditionNotes: read-out: Activity
Give just the numeric value; % need not be written.

mol: O=C(CCl)Oc1ccc2c(c1)[n+]([O-])c1cc(Br)ccc1[n+]2[O-]
propertyMeasured: viability at 168 h, 20 µM
quantitativeResult: 84

response.value for [O-][n+]1c2ccc(Br)cc2[n+]([O-])c2cc(OCc3ccccc3)ccc21 (field: viability at 168 h, 20 µM) = 86

response.value for Cc1cc2c(cc1F)[n+]([O-])c1ccc(N)cc1[n+]2[O-] (field: viability at 168 h, 20 µM) = 88

response.value for [O-][n+]1c2ccc(O)cc2[n+]([O-])c2cc(Cl)c(Cl)cc21 (field: viability at 168 h, 20 µM) = 1

response.value for Cc1ccc2c(c1)nc1cc(N)ccc1[n+]2[O-] (field: viability at 168 h, 20 µM) = 100
